Assay: qHTS assay for small molecule agonists of the antioxidant response element (ARE) signaling pathway measured by Nrf2-dependant transcriptional activity - cell viability counter screen (AID 720653); note: % is set by controls: 0 for no effect and ±100 for the full control effect
Settings: ARE-bla HepG2 viability, CellTiter-Glo ATP luminescence, 16 h; active compounds read low
Text: National Center for Advancing Translational Sciences [NCATS] NIH Chemical Genomics Center [NCGC] U.S. Environmental Protection Agency [EPA] National Institutes of Environmental Health Sciences [NIEHS] National Toxicology Program [NTP] […] The activation of the report gene under culture conditions can be detected by fluorescence intensity. The cytotoxicity of the compounds against the ARE-bla HepG2 cell line was quantified by measuring the intracellular ATP content. […]
Results filed as inconclusive are left out.
property-measured: max response (%)

# compound, property-measured, unit-abbrev, obs-value
measured = [
    ("COc1cccc(C(=O)NN(C(=O)c2cc(C)cc(C)c2)C(C)(C)C)c1C", "max response", "%", 2.48),
    ("CCOP(=O)(OCC)SCS(=O)(=O)C(C)(C)C", "max response", "%", 1.67),
    ("CN/C(=N\\[N+](=O)[O-])NCc1cnc(Cl)s1", "max response", "%", 0.65),
    ("CSc1nnc(C(C)(C)C)c(=O)n1N", "max response", "%", 6.99),
    ("N#CCNC(=O)c1cnccc1C(F)(F)F", "max response", "%", -0.0757),
    ("[Ga]#[As]", "max response", "%", -2.5),
    ("O=C(O)C1C(C(=O)O)C2(Cl)C(Cl)=C(Cl)C1(Cl)C2(Cl)Cl (stereo not drawn)", "max response", "%", 5.57),
    ("CCCN(CC)CC1COC2(CCC(C(C)(C)C)CC2)O1 (stereo not drawn)", "max response", "%", -11.5),
    ("N#CC(Cl)Cl", "max response", "%", -22.9),
    ("CC(C)C1(C)N=C(c2nc3ccccc3cc2C(=O)O)NC1=O (stereo not drawn)", "max response", "%", -2.59),
    ("CC(C)N(C(=O)SCC(Cl)=C(Cl)Cl)C(C)C", "max response", "%", 15.1),
    ("CC(C)C1(C)N=C(c2ncccc2C(=O)O)NC1=O (stereo not drawn)", "max response", "%", -6.07),
    ("CCOP(=O)(OCC)OC(Cl)C(Cl)(Cl)Cl (stereo not drawn)", "max response", "%", -17.4),
    ("CCC(C)(CC)c1cc(NC(=O)c2c(OC)cccc2OC)on1", "max response", "%", 10.3),
    ("CC(C)CCCCCCOC(=O)c1ccccc1C(=O)OCCCCCCC(C)C", "max response", "%", 0.428),
    ("OC(c1ccc(Cl)cc1)(c1cncnc1)c1ccccc1Cl (stereo not drawn)", "max response", "%", -4.24),
    ("COC(=O)c1sccc1S(=O)(=O)NC(=O)Nc1nc(C)nc(OC)n1", "max response", "%", 2.61),
    ("CCNc1nc(Cl)nc(NC(C)(C)C)n1", "max response", "%", -4.66),
]

###

experiment: qHTS assay for small molecule activators of the p53 signaling pathway (AID 651743); conditions: HCT-116 p53RE-bla, beta-lactamase FRET ratio, 16 h; active compounds read high; note: series mostly up to about 92 µM; % of control where 0% means no effect
Inconclusive results are not listed.

# molecule, unit-abbrev, activation
measured = [
    ("Nc1cccc(C(F)(F)F)c1", "%", -3.34),
    ("OC(Cn1cncn1)(c1ccc(F)cc1)c1ccccc1F (stereo not drawn)", "%", 0.874),
    ("CC(C)C1(C)N=C(c2ncccc2C(=O)O)NC1=O (stereo not drawn)", "%", -4.94),
    ("CCC(C)n1c(=O)[nH]c(C)c(Br)c1=O (stereo not drawn)", "%", -1.24),
    ("CC1(C)C(C(=O)OC(C#N)c2cccc(Oc3ccccc3)c2)C1(C)C (stereo not drawn)", "%", -5.39),
    ("CNP(=O)(OC)Oc1ccc(C(C)(C)C)cc1Cl (stereo not drawn)", "%", 6.28),
    ("Cc1cc(C)nc(Nc2ccccc2)n1", "%", -0.291),
    ("CCNc1nc(Cl)nc(NC(C)(C)C#N)n1", "%", -4.15),
]
